Assign TGI to each entry below.
Tested on: IGROV1 ovarian
PROTOCOL_DETAILS: NCI tumour cell line growth inhibition, 48 h

COMPOUND	ENDPOINT_RESULT
C[C@H](Cn1ncnn1)Nc1ncc2cc(Oc3ccc(F)cc3F)c(=O)n(C)c2n1	> 25 µM

Parameter requested: TGI. Apply to each item below.
1. CNC(SC)=C1C(=O)OC(C)(C)OC1=O
2. COc1cc(C2CC(C)(Nc3ccccc3)Oc3cc4c(cc32)OCO4)cc(OC)c1OC (stereo not drawn)
3. Cc1cc2c(Br)cc(Br)c(O)c2nc1C(=O)c1ccccc1
4. CC1(C)N=C(C(N)=O)c2ncn(CCCO)c2N1
5. CC(CC(=O)Nc1ccc(NC(=O)CC(C)N=NC(N)=S)cc1)N=NC(N)=S (stereo not drawn)

1: > 100 µM; 2: > 59.8 µM; 3: > 100 µM; 4: > 100 µM; 5: > 100 µM

For each of the compounds below, state TGI.
1. CC1=C(C(=O)Nc2ccccc2C)C(/C=C/c2ccccc2)C(C(=O)Nc2ccccc2C)=C(C)N1
2. COc1ccc(CC(O)CN2CCOCC2)cc1 (stereo not drawn)
3. Nc1c(-c2cccc3ccccc23)c2ccc([N+](=O)[O-])cc2c(=O)n1-c1nc2ccccc2s1
4. CC1(C)OC2COC3(CNO)OC(C)(C)OC3C2O1 (stereo not drawn)
5. COC(=O)c1c2c(cc3c1CC1(C3)Cc3cc4c(c(C(=O)OC)c3C1)CCCC4)CCCC2
6. COc1ccc2cc3c4cc5c(cc4cc[n+]3cc2c1OC)OCO5
7. C/C=C/C=C/c1nc(C#N)c(N)o1
8. CC(C)c1ccccc1NC(=O)/C(Cl)=C1/Sc2ccccc2NC1=O

> 100 µM
> 100 µM
> 100 µM
> 100 µM
> 100 µM
> 32.7 µM
> 100 µM
> 100 µM

Here are 4 compounds. What values of TGI were reported for them?
1. CCCCC1c2c([nH]c3ccccc23)C2C(=O)N(c3ccc(OC)cc3)C(=O)C2C1CCC (stereo not drawn)
2. COCOc1ccc(Cn2c(=O)n(C)c(=O)c3c2ncn3C)cc1[N+](=O)[O-]
3. CC/C(=N\NS(=O)(=O)c1ccccc1)c1ccccc1
4. CCOC(=O)C(=O)Nc1ccccc1C(F)(F)F

["> 10 µM", "> 100 µM", "> 100 µM", "> 100 µM"]

###

Could you please report measured TGI for the items listed next?
Test system: NCI-H522 lung
PROTOCOL_DETAILS: NCI tumour cell line growth inhibition, 48 h

Reference set (5 entries):
COMPOUND	ENDPOINT_RESULT
O=C(CNc1ccccc1Cl)Nn1c(-c2ccccc2)nc2ccccc2c1=O	> 10 µM
CC(=O)[O-].CC(=O)[O-].CC(=O)[O-].CC(=O)[O-].[Mo+2].[Mo+2]	> 100 µM
CO[C@]12CC(=O)C3(C(C[C@H]4CC5CC=C6C[C@@H](OC(C)=O)CC[C@]6(OC(C)=O)C5C[C@@]43C)C1)C1C[C@H]3[C@@H]4CC=C5C[C@@H](OC(C)=O)CC[C@]5(OC(C)=O)[C@H]4CC[C@]3(C)C12 (stereo partly drawn)	31.7 µM
CSc1cc(Cl)c(C)cc1S(=O)(=O)NC(=O)NNc1ccc(Cl)cc1	> 100 µM
O=C1C=C(O)c2[nH]c(=O)ccc2C1=O	> 100 µM

Please go through the list and note TGI for each compound.
1. Cc1cc(=O)c2c([nH]1)NS(=O)(=O)NC2=O
2. CC(=O)[CH-]C(C)=O.[CH2-]C.[CH2-]C.[Tl+3]
3. CCOC(=O)NC(=S)NN(C)C1=NCC(C)(C)S1

1. > 100 µM
2. > 100 µM
3. > 100 µM

###

Exercise: state measured TGI for each of the compounds provided.
System: TK-10 renal
PROTOCOL_DETAILS: NCI tumour cell line growth inhibition, 48 h

COMPOUND	ENDPOINT_RESULT
CCCNC(=O)CCC(C)[C@H]1CCC2C3C(C[C@H](OC(C)=O)[C@@]21C)[C@@]1(C)CCC2(C[C@H]1C[C@H]3OC(C)=O)OOC1(CCC(C)CC1)OO2 (stereo partly drawn)	58.8 µM

Each of the following entries comes with a recorded value; kindly state TGI for each.
1. C1=CC2=CC=CC3c4nc5ccc6ccccc6c5nc4C(=C1)C23 (stereo not drawn)
2. O=C(CCCN1CCC2(CC1)CC(=O)N(N1CCOCC1)C2=O)c1ccccc1
3. CC(=O)NNc1nc(C)c(C(=O)NNC(=O)C(=O)Nc2nc3ccc([N+](=O)[O-])cc3s2)s1
4. O=C1C=C(O)c2[nH]c(=O)ccc2C1=O

1: > 100 µM; 2: > 100 µM; 3: > 100 µM; 4: > 100 µM

Field: TGI. Fill in for each record below.
1. Cn1cc(-c2csc(-c3cn(C)c4ccccc34)n2)c2cnccc21
2. Cl[Si]1(Cl)Oc2ccccc2O[Si](Cl)(Cl)Oc2ccccc2O1

4.18 µM
> 100 µM

For each listed entry, give its TGI.
1. CC1=C(C(=O)Nc2ccccc2C)C(/C=C/c2ccccc2)C(C(=O)Nc2ccccc2C)=C(C)N1
2. C=CCn1c(=O)ccn(COCCO)c1=O
3. CCOC(=O)c1c(-c2ccc(OC)cc2)c(C#N)c(=S)n(C2OC(COC(C)=O)C(OC(C)=O)C(OC(C)=O)C2OC(C)=O)c1C (stereo not drawn)

> 100 µM
> 100 µM
> 100 µM

Dear reader, for each entry below, please note its TGI.
1. CC(C)/C(Cl)=N\OC(=O)Nc1ccc(C#N)cc1
2. COc1cc(C2CC(C)(Nc3ccccc3)Oc3cc4c(cc32)OCO4)cc(OC)c1OC (stereo not drawn)

1. 12.9 µM
2. > 100 µM

###

Tested on: SF-268 CNS
PROTOCOL_DETAILS: NCI tumour cell line growth inhibition, 48 h
Can you tell me TGI for the items I'm about to list?

COMPOUND	SYSTEM_UNDER_TEST	READOUT_NAME	ENDPOINT_RESULT
O=c1oc(-c2ccc(O)c(O)c2)cc2cccc(O)c12	SF-268 CNS	TGI	> 85.2 µM
N#CC(C#N)=CNC(=S)c1ccncc1	SF-268 CNS	TGI	> 100 µM
BrC/C=C/C[P+](c1ccccc1)(c1ccccc1)c1ccccc1	SF-268 CNS	TGI	> 100 µM
CCN(CC)CC(=O)N1CCc2c([nH]c3ccccc23)C1c1cccnc1 (stereo not drawn)	SF-268 CNS	TGI	> 100 µM
COc1cc2cnc3c4ccccc4ccc3c2cc1OC	SF-268 CNS	TGI	> 100 µM

I need TGI for every entry listed below, if you could help.
1. CC(=O)N/N=C1\NC(=O)C[C@H]2[C@@H]3CC=C4C[C@@H](OC(C)=O)CC[C@]4(C)[C@H]3CC[C@]12C
2. O=C(NCCCN(CCCCN(CCCNC(=O)C(F)(F)F)Cc1ccccc1)Cc1ccccc1)C(F)(F)F
3. O=c1ccc2cc3ccc4cccc5ccc(c2o1)c3c45
4. C=CCNC(=S)/N=C/c1c(O)c2ccccc2oc1=O
5. NC(=O)/C=C/C(=O)O
6. CSc1cc(Cl)c(C)cc1S(=O)(=O)NC(=O)NNc1ccc(Cl)cc1
7. CCCCC1c2c([nH]c3ccccc23)C2C(=O)N(c3ccc(OC)cc3)C(=O)C2C1CCC (stereo not drawn)
8. O=C(O)CCC(NC(=S)S)C(=O)O.[Na+].[Zn+2] (stereo not drawn)

["> 100 µM", "25 µM", "> 100 µM", "> 100 µM", "> 5000 µM", "> 100 µM", "> 10 µM", "> 50 µM"]

###

Record form. Attribute: TGI. Fill in for each entry.
System: OVCAR-3 ovarian
PROTOCOL_DETAILS: NCI tumour cell line growth inhibition, 48 h

Guide cases for TGI, answers given:
COMPOUND	TGI
O=c1c2cc3c(cc2[nH]c2ncccc12)OCO3	> 10 µM
Cc1c2c(n(CCc3ccc(Cl)cc3)c1C)NN=C(C#N)S2(=O)=O	> 100 µM
COc1ccc(Nc2nc3ccccc3nc2-c2cccs2)cc1	> 100 µM

Dear colleague, could you send me TGI for each of the items below? Thanks.
1. O=C1/C(=C\c2cccc(Oc3ccccc3)c2)S(=O)(=O)C(c2ccccc2)N1Cc1ccccc1 (configuration not stated)
2. Cc1cc(N(CCC#N)CCC#N)ccc1/C=C1N=C(/C=C/c2ccccc2)OC(=O)N\1

["34.2 µM", "> 100 µM"]

Each compound below has a reported value. Please supply its TGI.
1. CC(C)COP(=O)(OCC(C)C)C(NS(=O)(=O)c1ccccc1)(C(F)(F)F)C(F)(F)F
2. CCOC(=O)C(=O)Nc1ccccc1C(F)(F)F

23.8 µM
> 100 µM

###

Test system: SK-MEL-2 melanoma
PROTOCOL_DETAILS: NCI tumour cell line growth inhibition, 48 h
Assignment: determine reported TGI for the given compounds.

Worked examples follow.
COMPOUND	ENDPOINT_RESULT
CC1=C(C(=O)Nc2ccccc2C)C(/C=C/c2ccccc2)C(C(=O)Nc2ccccc2C)=C(C)N1	> 100 µM
COc1cc(C2CC(C)(Nc3ccccc3)Oc3cc4c(cc32)OCO4)cc(OC)c1OC (centres undefined)	> 29.4 µM
CC/C(=N\NS(=O)(=O)c1ccccc1)c1ccccc1	> 100 µM
COc1cc([N+](=O)[O-])c(OC)cc1-c1nc2sc(Cl)cn2c1/C=N/Nc1ccccn1	> 50 µM
Cc1cn(C2OC(C)(CO)C(O)C2O)c(=O)[nH]c1=O (centres undefined)	> 100 µM

Count: 3. Required value per item: TGI.
1. CN(C)C(=S)S
2. CC1(C)N=C(N)N=C(N)N1c1ccc(OCC(=O)Nc2ccccc2)c(Cl)c1
3. CC(=O)N[C@H](C(=O)N[C@@H](CCCNC(=N)N)C(=O)N[C@@H](CCCCN)C(=O)N[C@@H](CCCNC(=N)N)C(=O)N[C@]1(C)CCCCCC/C=C\CCC[C@@](C)(C(=O)N[C@@H](CCCNC(=N)N)C(=O)N[C@@H](CCC(=O)O)C(=O)N[C@@H](CC(C)C)C(=O)N[C@H](C(=O)N[C@@H](CCC(=O)O)C(N)=O)C(C)C)NC(=O)[C@H](CCC(N)=O)NC(=O)[C@H](CC(C)C)NC(=O)[C@H](CC(C)C)NC(=O)[C@H](CCCNC(=N)N)NC(=O)[C@H](CCCNC(=N)N)NC(=O)[C@H](CC(C)C)NC1=O)C(C)C

1. > 93.8 µM
2. > 100 µM
3. > 50 µM

// returns reported TGI for input O=S(=O)(O)c1cc2ccc1/C=C\c1ccc(cc1S(=O)(=O)O)N=Nc1ccc(c(S(=O)(=O)O)c1)/C=C\c1ccc(cc1S(=O)(=O)O)N=N2
> 100 µM
